Where do the numbers come from? From BigSolDB 2.1.

Measurement conditions: in 2-butanone, 303.15 K
Recorded endpoint: solubility (mole fraction)

smiles_text=Cn1cc([N+](=O)[O-])cn1 recorded_endpoint="solubility (mole fraction)" numeric_value=0.0162

###

Measurement conditions: in acetic acid, 303.15 K
Recorded endpoint: solubility (mole fraction)

smiles_text=Cn1cc([N+](=O)[O-])cn1 result=0.000633

###

Measurement conditions: in n-propanol, 303.15 K
Recorded endpoint: solubility (mole fraction)

smiles_text=Cn1cc([N+](=O)[O-])cn1 recorded_endpoint="solubility (mole fraction)" result=0.00331

###

Measurement conditions: in methyl acetate, 308.15 K
Recorded endpoint: solubility (mole fraction)

smiles_text=Cn1cc([N+](=O)[O-])cn1 recorded_endpoint="solubility (mole fraction)" numeric_value=0.0351

###

Measurement conditions: in acetic acid, 293.15 K
Recorded endpoint: solubility (mole fraction)

smiles_text=Cn1cc([N+](=O)[O-])cn1 recorded_endpoint="solubility (mole fraction)" numeric_value=0.00039

###

Measurement conditions: in n-pentanol, 293.15 K
Recorded endpoint: solubility (mole fraction)

smiles_text=Cn1cc([N+](=O)[O-])cn1 recorded_endpoint="solubility (mole fraction)" result=0.0021

###

Measurement conditions: in n-propanol, 298.15 K
Recorded endpoint: solubility (mole fraction)

smiles_text=Cn1cc([N+](=O)[O-])cn1 numeric_value=0.00296

###

Measurement conditions: in isopropanol, 283.15 K
Recorded endpoint: solubility (mole fraction)

smiles_text=Cn1cc([N+](=O)[O-])cn1 numeric_value=0.00185

###

Measurement conditions: in ethyl acetate, 288.15 K
Recorded endpoint: solubility (mole fraction)

smiles_text=Cn1cc([N+](=O)[O-])cn1 recorded_endpoint="solubility (mole fraction)" numeric_value=0.0143

###

Measurement conditions: in n-butanol, 318.15 K
Recorded endpoint: solubility (mole fraction)

smiles_text=Cn1cc([N+](=O)[O-])cn1 result=0.0123

###

Measurement conditions: in 1,2-dichlorobenzene, 298.15 K
Recorded endpoint: solubility (mole fraction)

smiles_text=Cn1cc([N+](=O)[O-])cn1 recorded_endpoint="solubility (mole fraction)" numeric_value=0.000215

###

Measurement conditions: in ethyl acetate, 308.15 K
Recorded endpoint: solubility (mole fraction)

smiles_text=Cn1cc([N+](=O)[O-])cn1 recorded_endpoint="solubility (mole fraction)" numeric_value=0.0235

###

Measurement conditions: in acetonitrile, 313.15 K
Recorded endpoint: solubility (mole fraction)

smiles_text=Cn1cc([N+](=O)[O-])cn1 recorded_endpoint="solubility (mole fraction)" result=0.00756

###

Measurement conditions: in n-pentanol, 308.15 K
Recorded endpoint: solubility (mole fraction)

smiles_text=Cn1cc([N+](=O)[O-])cn1 numeric_value=0.00325

###

Measurement conditions: in 1,2-dichlorobenzene, 293.15 K
Recorded endpoint: solubility (mole fraction)

smiles_text=Cn1cc([N+](=O)[O-])cn1 recorded_endpoint="solubility (mole fraction)" numeric_value=0.000179

###

Measurement conditions: in acetone, 283.15 K
Recorded endpoint: solubility (mole fraction)

smiles_text=Cn1cc([N+](=O)[O-])cn1 recorded_endpoint="solubility (mole fraction)" numeric_value=0.0192

###

Measurement conditions: in methanol, 323.15 K
Recorded endpoint: solubility (mole fraction)

smiles_text=Cn1cc([N+](=O)[O-])cn1 numeric_value=0.014

###

Measurement conditions: in water, 293.15 K
Recorded endpoint: solubility (mole fraction)

smiles_text=Cn1cc([N+](=O)[O-])cn1 result=0.000113

###

Measurement conditions: in toluene, 303.15 K
Recorded endpoint: solubility (mole fraction)

smiles_text=Cn1cc([N+](=O)[O-])cn1 recorded_endpoint="solubility (mole fraction)" numeric_value=0.0132

###

Measurement conditions: in isopropanol, 288.15 K
Recorded endpoint: solubility (mole fraction)

smiles_text=Cn1cc([N+](=O)[O-])cn1 numeric_value=0.00235

###

Measurement conditions: in ethanol, 288.15 K
Recorded endpoint: solubility (mole fraction)

smiles_text=Cn1cc([N+](=O)[O-])cn1 numeric_value=0.00511

###

Measurement conditions: in toluene, 313.15 K
Recorded endpoint: solubility (mole fraction)

smiles_text=Cn1cc([N+](=O)[O-])cn1 recorded_endpoint="solubility (mole fraction)" numeric_value=0.0189

###

Measurement conditions: in water, 298.15 K
Recorded endpoint: solubility (mole fraction)

smiles_text=Cn1cc([N+](=O)[O-])cn1 numeric_value=0.000127

###

Measurement conditions: in 2-pentanol, 323.15 K
Recorded endpoint: solubility (mole fraction)

smiles_text=Cn1cc([N+](=O)[O-])cn1 numeric_value=0.00348

###

Measurement conditions: in acetic acid, 308.15 K
Recorded endpoint: solubility (mole fraction)

smiles_text=Cn1cc([N+](=O)[O-])cn1 numeric_value=0.000776

###

Measurement conditions: in 2-butanone, 288.15 K
Recorded endpoint: solubility (mole fraction)

smiles_text=Cn1cc([N+](=O)[O-])cn1 recorded_endpoint="solubility (mole fraction)" numeric_value=0.0098

###

Measurement conditions: in water, 283.15 K
Recorded endpoint: solubility (mole fraction)

smiles_text=Cn1cc([N+](=O)[O-])cn1 numeric_value=7.5e-05

###

Measurement conditions: in methyl acetate, 293.15 K
Recorded endpoint: solubility (mole fraction)

smiles_text=Cn1cc([N+](=O)[O-])cn1 numeric_value=0.022

###

Measurement conditions: in acetonitrile, 283.15 K
Recorded endpoint: solubility (mole fraction)

smiles_text=Cn1cc([N+](=O)[O-])cn1 result=0.00299

###

Measurement conditions: in 2-butanone, 283.15 K
Recorded endpoint: solubility (mole fraction)

smiles_text=Cn1cc([N+](=O)[O-])cn1 recorded_endpoint="solubility (mole fraction)" result=0.0093

###

Measurement conditions: in n-pentanol, 323.15 K
Recorded endpoint: solubility (mole fraction)

smiles_text=Cn1cc([N+](=O)[O-])cn1 recorded_endpoint="solubility (mole fraction)" numeric_value=0.0054

###

Measurement conditions: in ethyl acetate, 318.15 K
Recorded endpoint: solubility (mole fraction)

smiles_text=Cn1cc([N+](=O)[O-])cn1 recorded_endpoint="solubility (mole fraction)" result=0.0299

###

Measurement conditions: in n-pentanol, 298.15 K
Recorded endpoint: solubility (mole fraction)

smiles_text=Cn1cc([N+](=O)[O-])cn1 recorded_endpoint="solubility (mole fraction)" numeric_value=0.0024

###

Measurement conditions: in n-butanol, 303.15 K
Recorded endpoint: solubility (mole fraction)

smiles_text=Cn1cc([N+](=O)[O-])cn1 numeric_value=0.00559

###

Measurement conditions: in ethanol, 313.15 K
Recorded endpoint: solubility (mole fraction)

smiles_text=Cn1cc([N+](=O)[O-])cn1 recorded_endpoint="solubility (mole fraction)" numeric_value=0.00736

###

Measurement conditions: in water, 308.15 K
Recorded endpoint: solubility (mole fraction)

smiles_text=Cn1cc([N+](=O)[O-])cn1 result=0.000181

###

Measurement conditions: in 1,2-dichlorobenzene, 303.15 K
Recorded endpoint: solubility (mole fraction)

smiles_text=Cn1cc([N+](=O)[O-])cn1 recorded_endpoint="solubility (mole fraction)" numeric_value=0.000266

###

Measurement conditions: in 1,2-dichlorobenzene, 323.15 K
Recorded endpoint: solubility (mole fraction)

smiles_text=Cn1cc([N+](=O)[O-])cn1 recorded_endpoint="solubility (mole fraction)" numeric_value=0.000607

###

Measurement conditions: in n-butanol, 283.15 K
Recorded endpoint: solubility (mole fraction)

smiles_text=Cn1cc([N+](=O)[O-])cn1 result=0.00205

###

Measurement conditions: in 2-butanone, 323.15 K
Recorded endpoint: solubility (mole fraction)

smiles_text=Cn1cc([N+](=O)[O-])cn1 numeric_value=0.0285

###

Measurement conditions: in isopropanol, 298.15 K
Recorded endpoint: solubility (mole fraction)

smiles_text=Cn1cc([N+](=O)[O-])cn1 recorded_endpoint="solubility (mole fraction)" result=0.00363

###

Measurement conditions: in acetic acid, 288.15 K
Recorded endpoint: solubility (mole fraction)

smiles_text=Cn1cc([N+](=O)[O-])cn1 recorded_endpoint="solubility (mole fraction)" numeric_value=0.000296

###

Measurement conditions: in n-butanol, 308.15 K
Recorded endpoint: solubility (mole fraction)

smiles_text=Cn1cc([N+](=O)[O-])cn1 numeric_value=0.00709

###

Measurement conditions: in ethyl acetate, 323.15 K
Recorded endpoint: solubility (mole fraction)

smiles_text=Cn1cc([N+](=O)[O-])cn1 numeric_value=0.0337

###

Measurement conditions: in 2-pentanol, 313.15 K
Recorded endpoint: solubility (mole fraction)

smiles_text=Cn1cc([N+](=O)[O-])cn1 recorded_endpoint="solubility (mole fraction)" result=0.00221

###

Measurement conditions: in sec-butanol, 303.15 K
Recorded endpoint: solubility (mole fraction)

smiles_text=Cn1cc([N+](=O)[O-])cn1 recorded_endpoint="solubility (mole fraction)" numeric_value=0.00213

###

Measurement conditions: in water, 303.15 K
Recorded endpoint: solubility (mole fraction)

smiles_text=Cn1cc([N+](=O)[O-])cn1 result=0.000154

###

Measurement conditions: in n-butanol, 313.15 K
Recorded endpoint: solubility (mole fraction)

smiles_text=Cn1cc([N+](=O)[O-])cn1 numeric_value=0.0091
